- method: aqueous solubility pH 7.4
- Assay type: physicochemical
- condition-label: aqueous medium, pH 7.4, aqueous buffer
measurement-type: solubility (µM)

{"compound-string": "COc1ccc(Nc2ccnc3cc(-c4ccc(S(=O)(=O)N5CCN(C)CC5)cc4)ccc23)cc1Cl", "unit-tag": "µM", "observed-measurement": 100}

----------
- method: LogD7.4
- Format: physicochemical
- condition-label: pH 7.4

{"compound-string": "CN1CCN(c2ccnc(Nc3ccc4c(Nc5cnccn5)ccnc4c3)n2)CC1", "logD": 2.8}
{"compound-string": "CN1CCN(c2ncc(-c3ccc4c(Nc5ccc6[nH]nnc6c5)ccnc4c3)cn2)CC1", "logD": 3.3}
{"compound-string": "c1cnc(Nc2ccnc3cc(-c4cn[nH]c4)ccc23)cn1", "logD": 2.6}
{"compound-string": "COc1ccc(Nc2ccnc3cc(Nc4nccc(N5CCN(C)CC5)n4)ccc23)cc1Cl", "logD": 3.3}
{"compound-string": "CN1CCN(c2ccc(Nc3ccc4c(Nc5cnccn5)ccnc4c3)cc2)CC1", "logD": 2.2}
{"compound-string": "CN1CCN(c2nccc(Nc3ccc4c(Nc5cnccn5)ccnc4c3)n2)CC1", "logD": 2.9}
{"compound-string": "COc1ccc(Nc2ccnc3cc(-c4cn[nH]c4)ccc23)cc1Cl", "logD": 3.5}

----------
- method: aqueous solubility pH 7.4
- Format: physicochemical
- condition-label: aqueous solution at pH 7.4, pH 7.4, aqueous buffer
Recorded solubility by entry
measurement-type: solubility (µM)

{"compound-string": "CN1CCN(c2ncc(-c3ccc4c(Nc5ccc6[nH]nnc6c5)ccnc4c3)cn2)CC1", "measurement-type": "solubility", "unit-tag": "µM", "censoring-sign": "<", "observed-measurement": 1}
{"compound-string": "COc1ccc(Nc2ccnc3cc(-c4cn[nH]c4)ccc23)cc1Cl", "measurement-type": "solubility", "unit-tag": "µM", "censoring-sign": "=", "observed-measurement": 2}
{"compound-string": "COc1ccc(Nc2ccnc3cc(Nc4nccc(N5CCN(C)CC5)n4)ccc23)cc1Cl", "measurement-type": "solubility", "unit-tag": "µM", "censoring-sign": "=", "observed-measurement": 570}
{"compound-string": "c1cnc(Nc2ccnc3cc(-c4cn[nH]c4)ccc23)cn1", "measurement-type": "solubility", "unit-tag": "µM", "censoring-sign": "=", "observed-measurement": 1}
{"compound-string": "COc1ccc(Nc2ccnc3cc(-c4cnc(N5CCN(C)CC5)nc4)ccc23)cc1Cl", "measurement-type": "solubility", "unit-tag": "µM", "censoring-sign": "<", "observed-measurement": 1}

----------
- method: human liver microsome intrinsic clearance
- Assay type: in vitro ADME
- condition-label: liver microsomes

{"compound-string": "CN1CCN(c2ncc(-c3ccc4c(Nc5ccc6[nH]nnc6c5)ccnc4c3)cn2)CC1", "microsomal CLint, µL/min/mg": 120}
{"compound-string": "COc1ccc(Nc2ccnc3cc(Nc4ccnc(N5CCN(C)CC5)n4)ccc23)cc1Cl", "microsomal CLint, µL/min/mg": 45}
{"compound-string": "COc1ccc(Nc2ccnc3cc(-c4cn[nH]c4)ccc23)cc1Cl", "microsomal CLint, µL/min/mg": 8}
{"compound-string": "c1cnc(Nc2ccnc3cc(-c4cn[nH]c4)ccc23)cn1", "microsomal CLint, µL/min/mg": 130}

----------
- method: rat hepatocyte intrinsic clearance
- Type: in vitro ADME
- condition-label: rat hepatocytes

{"compound-string": "COc1ccc(Nc2ccnc3cc(Nc4ccnc(N5CCN(C)CC5)n4)ccc23)cc1Cl", "Rat Hepatocyte CLint, μL/min/10^6": 2.3}
{"compound-string": "CN1CCN(c2ncc(-c3ccc4c(Nc5ccc6[nH]nnc6c5)ccnc4c3)cn2)CC1", "Rat Hepatocyte CLint, μL/min/10^6": 51}
{"compound-string": "CN1CCN(c2ncc(-c3ccc4c(Nc5cnccn5)ccnc4c3)cn2)CC1", "Rat Hepatocyte CLint, μL/min/10^6": 130}
{"compound-string": "COc1ccc(Nc2ccnc3cc(-c4cnc(N5CCN(C)CC5)nc4)ccc23)cc1Cl", "Rat Hepatocyte CLint, μL/min/10^6": 45}
{"compound-string": "CN1CCN(c2ccnc(Nc3ccc4c(Nc5cnccn5)ccnc4c3)n2)CC1", "Rat Hepatocyte CLint, μL/min/10^6": 9.3}
{"compound-string": "CN1CCN(c2ccc(Nc3ccc4c(Nc5cnccn5)ccnc4c3)cc2)CC1", "Rat Hepatocyte CLint, μL/min/10^6": 10}
{"compound-string": "COc1ccc(Nc2ccnc3cc(-c4cn[nH]c4)ccc23)cc1Cl", "Rat Hepatocyte CLint, μL/min/10^6": 5.0}
{"compound-string": "COc1ccc(Nc2ccnc3cc(Nc4nccc(N5CCN(C)CC5)n4)ccc23)cc1Cl", "Rat Hepatocyte CLint, μL/min/10^6": 7.2}
{"compound-string": "c1cnc(Nc2ccnc3cc(-c4cn[nH]c4)ccc23)cn1", "Rat Hepatocyte CLint, μL/min/10^6": 5.0}
